Each entry below carries its reported normalized growth.
- TEST_DETAILS: chemical genetic growth profiling, strain panel (AID 1159580);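 also: tested at 20 µM; growth read once vehicle control cultures reached saturation at 30 °C; 1 = growth at the plate median or of vehicle wells; lower values mean less growth of the strain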
- RECORDED_CONDITIONS: S. cerevisiae deletion strains, growth OD, locus YGR092W, strain DBF2, hits give low values
Screen size: about 5,500 compounds; about 2,000 (36%) were called active. Another 18% or so got no clear call; they are omitted. The list shows a part of the results.

Would you please look over these solved cases?
O=S(=O)(Nc1cc(C(F)(F)F)cc(C(F)(F)F)c1)c1ccc(Cl)s1 ... 0.369 (active)
COC(=O)c1cccc(NS(=O)(=O)c2ccc(Cl)c(Cl)c2)c1 ... 0.948 (inactive)

Look up and state reported normalized growth for COC(=S)Nc1cc(Cl)cc(Cl)c1
0.452 (active)

Look up and state reported normalized growth for CC(C)c1cccc(C(C)C)c1OC(=O)NC(=O)c1c(Cl)cccc1Cl
0.992 (inactive)

* * *

- TEST_DETAILS: chemical genetic growth profiling, strain panel (AID 1159580);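 also: tested at 20 µM; growth read once vehicle control cultures reached saturation at 30 °C; 1 = growth at the plate median or of vehicle wells; lower values mean less growth of the strain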
- RECORDED_CONDITIONS: S. cerevisiae deletion strains, growth OD, locus YNL224C, strain SQS1, hits give low values
Screen size: about 5,500 compounds; about 2,000 (36%) were called active. Another 18% or so got no clear call; they are omitted. The list shows a part of the results.
OBSERVATION_TYPE: normalized growth
// no unit string in output, number only

C#CCn1c(=O)c2c(ncn2C)n(C)c1=O ... 1.01
NC(Cc1ccc(Cl)cc1)C(=O)O (stereo unspecified) ... 1.01

Look up and state reported normalized growth for CCCN1CCCC2Cc3[nH]ncc3CC21 (stereo unspecified)
0.98

Look up and state reported normalized growth for Cn1c(=O)c2c(nc(/C=C/c3cccc(Cl)c3)n2C)n(C)c1=O
0.995

Look up and state reported normalized growth for O=C(O)c1cccnc1C(=O)O
0.998

* * *

- TEST_DETAILS: chemical genetic growth profiling, strain panel (AID 1159580);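 also: tested at 20 µM; growth read once vehicle control cultures reached saturation at 30 °C; 1 = growth at the plate median or of vehicle wells; lower values mean less growth of the strain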
- RECORDED_CONDITIONS: S. cerevisiae deletion strains, growth OD, locus YPL078C, strain atp4
Hit rate of the full screen: of about 5,500 compounds, about 2,000 (36%) were called active. Roughly 18% stayed inconclusive and do not appear here. Rule as the data show it: active = normalized growth mostly below about 0.91 (no sharp cut-off); inconclusive = no clear call, values can overlap the other calls; inactive = mostly above about 0.92. The list shows a part of the results.
Select the matching outcome among active, inactive

Reference set (6 entries):
CC(NC(C)(C)C)C(=O)c1cccc(Cl)c1 (centres undefined) ... inactive
O=c1c(O)c(-c2ccccc2)oc2cc(O)ccc12 ... active
O=C(/C=C/c1ccc(O)cc1)c1ccccc1O ... active
C=C[C@H]1CN2CC[C@H]1C[C@H]2[C@H](O)c1ccnc2ccccc12 ... inactive
CC(C)C1CCC(C(=O)N[C@@H](Cc2ccccc2)C(=O)O)CC1 (some centres undefined) ... inactive
C[C@H]1C(=O)CCC2[C@]3(C)CC[C@@]4(C)C5CC(C)(C)CC[C@]5(C)CC[C@]4(C)C3CC[C@@]21C (some centres undefined) ... inactive

Consider the record given below.
Can you look up the reported call for COc1ccccc1OCC(O)COC(N)=O (centres undefined) for me?
inactive

* * *

- TEST_DETAILS: chemical genetic growth profiling, strain panel (AID 1159580);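 also: tested at 20 µM; growth read once vehicle control cultures reached saturation at 30 °C; 1 = growth at the plate median or of vehicle wells; lower values mean less growth of the strain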
- RECORDED_CONDITIONS: S. cerevisiae deletion strains, growth OD, locus YKL085W, strain MDH1
Hit rate of the full screen: of about 5,500 compounds, about 2,000 (36%) were called active. Not shown: some 18% with an inconclusive outcome. Cut-off read from the data, not from the text of the source: active = normalized growth mostly below about 0.91 (no sharp cut-off); inconclusive = no clear call, values can overlap the other calls; inactive = mostly above about 0.92. The list shows a part of the results.
Select the matching outcome among yes (1) for active, no (0) for inactive

Reference set (5 entries):
CNC(C)[C@@H]1CC[C@@H](N)[C@@H](OC2[C@@H](N)C[C@@H](N)[C@H](OC3OC[C@](C)(O)[C@H](NC)[C@H]3O)[C@H]2O)O1 (some centres not stated) ... no (0)
CC(=O)OC[C@@]1(O)C[C@@]23CCC4c5ccoc5CC[C@]4(C)C2CC[C@@H]1C3 (some centres not stated) ... no (0)
O=C1c2cccc(O)c2C(=O)c2c(O)cccc21 ... no (0)
OC[C@H]1O[C@@H](Oc2ccc(O)cc2)[C@H](O)[C@@H](O)[C@@H]1O ... no (0)
C[C@H]1C(=O)CCC2[C@]3(C)CC[C@@]4(C)C5CC(C)(C)CC[C@]5(C)CC[C@]4(C)C3CC[C@@]21C (some centres not stated) ... no (0)

Can you look up the reported call for CCCc1ncc(C[n+]2ccccc2C)c(N)n1 for me?
no (0)

Can you look up the reported call for CC(NC(C)(C)C)C(=O)c1cccc(Cl)c1 (configuration not stated) for me?
no (0)

Can you look up the reported call for O=C(N[C@@H](CO)[C@H](O)c1ccc([N+](=O)[O-])cc1)C(Cl)Cl for me?
no (0)

Can you look up the reported call for ClC1C(Cl)C(Cl)C(Cl)C(Cl)C1Cl (configuration not stated) for me?
yes (1)

Can you look up the reported call for COc1cc(OC)c2c(OC)c(-c3ccc4c(c3)OCO4)c(=O)oc2c1 for me?
no (0)

Can you look up the reported call for COc1ccc(-c2c(OC)c3c(OC)c4c(cc3oc2=O)OC(C)(C)C=C4)cc1 for me?
no (0)

Can you look up the reported call for CC(C)N=C(N)N=C(N)Nc1ccc(Cl)cc1 for me?
no (0)

Can you look up the reported call for NC(Cc1ccc(Cl)cc1)C(=O)O (configuration not stated) for me?
no (0)
